All values here come from the supplement of paper PMC7877785.

assay: self-splicing fitness, log relative to wild type (ln ratio); higher = more splicing; Tetrahymena group I intron in knt gene, E. coli kanamycin selection, DiMSum; sequences stand for … in CUCUCU…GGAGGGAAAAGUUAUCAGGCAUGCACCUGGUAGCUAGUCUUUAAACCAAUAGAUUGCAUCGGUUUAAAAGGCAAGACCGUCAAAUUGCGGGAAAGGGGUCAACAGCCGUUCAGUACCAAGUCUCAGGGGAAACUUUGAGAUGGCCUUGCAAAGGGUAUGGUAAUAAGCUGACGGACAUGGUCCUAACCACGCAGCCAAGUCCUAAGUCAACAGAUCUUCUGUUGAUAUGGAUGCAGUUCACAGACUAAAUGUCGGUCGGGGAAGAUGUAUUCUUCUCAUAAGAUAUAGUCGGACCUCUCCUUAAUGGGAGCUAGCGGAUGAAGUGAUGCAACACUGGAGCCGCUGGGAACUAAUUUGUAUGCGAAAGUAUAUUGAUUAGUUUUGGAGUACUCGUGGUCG; details: 37 °C;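 also: selection with 25 µg/mL kanamycin versus none on LB agar overnight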
value-kind: self-splicing fitness (ln)

- CUCAAGCAAUAUUACGUCUG: -1.36
- AUCGAGCAAUAUUACGCGGG: -1.21
- ACUAAGCAAUAUUACGACUC: 0.402
- GUGGAGCAAUAUUACGUGGG: -2.7
- CGAAAGCAAUAUUACGGUAU: -1.2
- CCGGAGCAAUAUUACGCGAG: -1.79
- CAUGAGCAAUAUUACGUAUU: -0.455
- AGCGAGCAAUAUUACGAGUA: -1.18
- GUGAAGCAAUAUUACGGCUA: 0.322
- ACAUAGCAAUAUUACGUCCA: -0.641
- UAGUAGCAAUAUUACGUCGA: -1.24
- AUCUAGCAAUAUUACGUGGC: -2.92
- UUGAAGCAAUAUUACGCUUG: -0.679
- ACCAAGCAAUAUUACGAGCU: -0.791
- CGAAAGCAAUAUUACGCCGU: -0.862
- GGUGAGCAAUAUUACGGUCG: -0.612

====

assay: self-splicing fitness, log relative to wild type (ln ratio); higher = more splicing; Tetrahymena group I intron in knt gene, E. coli kanamycin selection, DiMSum; sequences stand for … in CUCUCU…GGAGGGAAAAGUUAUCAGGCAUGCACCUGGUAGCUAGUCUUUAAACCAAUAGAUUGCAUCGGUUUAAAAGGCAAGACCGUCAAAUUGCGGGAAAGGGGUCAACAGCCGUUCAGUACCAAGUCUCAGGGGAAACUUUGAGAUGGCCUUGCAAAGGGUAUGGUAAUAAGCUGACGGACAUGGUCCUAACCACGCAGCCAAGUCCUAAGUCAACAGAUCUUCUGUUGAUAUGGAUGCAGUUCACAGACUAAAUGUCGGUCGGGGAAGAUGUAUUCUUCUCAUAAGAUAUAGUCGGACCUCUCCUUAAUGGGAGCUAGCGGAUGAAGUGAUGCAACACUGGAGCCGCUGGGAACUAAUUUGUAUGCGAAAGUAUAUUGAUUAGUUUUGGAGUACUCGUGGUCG; conditions: 37 °C
value-kind: self-splicing fitness (ln)

- AAAGAGCAAUAUUACGUUCU: -1.72
- GGAUAGCAAUAUUACGUAUU: -2.21
- UAUAAGCAAUAUUACGGGGG: -3.09
- CGAGAGCAAUAUUACGGGGC: -2.61
- AUCCAGCAAUAUUACGCCGA: -0.75
- CAGCAGCAAUAUUACGAGAU: -1.71
- GAGUAGCAAUAUUACGAUUA: -0.317
- UCUUAGCAAUAUUACGGCAU: -1.75
